Hello, the source for this data is ChEMBL document CHEMBL1132901, in case you need it.

Test system: Streptococcus pyogenes
Assay: In vitro antimicrobial activity against Streptococcus pyogenes SG 511
Format: functional
Doc: threshold 3 mg/L (exclusive). Items with MIC beneath it return fulfilled; others return not fulfilled.

Solved entries:
CC(C)(O/N=C(\C(=O)N[C@@H]1C(=O)N2C(C(=O)[O-])=C(C[n+]3ccccc3)CS[C@H]12)c1csc(N)n1)C(=O)O [CEFTAZIDIME]: not fulfilled
CO/N=C(/C(=O)N[C@@H]1C(=O)N2C(C(=O)[O-])=C(C[n+]3cccc(-c4cc(C(N)=O)[nH]n4)c3)CS[C@H]12)c1csc(N)n1: fulfilled
CO/N=C(/C(=O)N[C@@H]1C(=O)N2C(C(=O)[O-])=C(C[n+]3cccc(-c4cc(N)[nH]n4)c3)CS[C@H]12)c1csc(N)n1: fulfilled
CO/N=C(/C(=O)N[C@@H]1C(=O)N2C(C(=O)[O-])=C(C[n+]3cccc(-c4cc(CO)nn4CCO)c3)CS[C@H]12)c1csc(N)n1: not fulfilled
CO/N=C(/C(=O)N[C@@H]1C(=O)N2C(C(=O)[O-])=C(C[n+]3cccc(-c4cc[nH]n4)c3)CS[C@H]12)c1csc(N)n1: not fulfilled

Now for a further molecule.
I'd appreciate it if you could check whether "CO/N=C(/C(=O)N[C@@H]1C(=O)N2C(C(=O)[O-])=C(C[n+]3cccc(-c4cc(CO)[nH]n4)c3)CS[C@H]12)c1csc(N)n1" has MIC smaller than 3 mg/L. fulfilled
